# procedureSummary: soluble on expression in E. coli; label from the status in PepcDB or PDB records
experimentalReadout: soluble on expression in E. coli

>>> endpointvalue("MGSDKIHHHHHHMDEKGLADCHTPTNGGNQKIKFVNEPNLYRIIFRSNKPEAKQFQDWVFNEVLPTIRKTGKYEAPKPVEKRNYLNNSDMNNIKRLIWTCADHFGHKGSFNQAIWACLRDVTGVPSPAKFEVEHLPVLAEEFKRILNIVQPFLDMQYECQTLLIKRVIRGRADHTVLQALLDNMRNAANQSDNQFKEALQKQLPAMFNQECLNLINRRPNHYDHYEYNERLI")
"not soluble"
>>> endpointvalue("MGSDKIHHHHHHMNTYHPFSLTTPSTLMIQDWAQTNQNNKEVIAGFTTKNGGVSQKPFESLNTGLHVHDKDADVVKNREYIADMFNTDLQSWVFADQTHDNRVQKVTQRDRGKGAREYHTALKATDGIYTNEKNVFLALCFADCVPLFFYDPVKSLVGVAHAGWKGTVKQIGREMVKQWTEKEGSNPSDIYAVIGPSISGACYTVDDRVMDAVRALPVSADLAANQTAKAQYQLDLKELNRLILMDSGLASEQISVSGLCTESEPSLFYSHRRDQGKTGRMMSFIGMKEA")
"not soluble"

---

# procedureSummary: soluble on expression in E. coli; label from the status in PepcDB or PDB records
experimentalReadout: soluble on expression in E. coli

>>> endpointvalue("MGSDKIHHHHHHMDFRLRQMEIFRSVMLTGSINGAAKLLFISQPAVSRIIAHTEQTLGLKLFNRAKGKLIPTPEGVALFRQVDEFYEHALQVNNFARDLAQGATGTLNLSSSPCLSYTVMPRAIAQFIARYPKIRVVYHTSQLNCMATEVLSNKVDVAVAVMPIQHPNVKVEVFTTGKMACVLPKDHPLGSQTVLSLADVSAYPLIVHHPSITFGKLVSTAFRDAGLEMRSRVNVFQTDVACSLVRAGAGIAIVDEYTACAGAWHDLMQRPLAEPITLTPCIVRSAFDNQATHADKFIEILRGVAHAR")
"not soluble"
>>> endpointvalue("MKKIIALMLFLTFFAHANDSEPGSQYLKAAEAGDRRAQYFLADSWFSSGDLSKAEYWAQKAADSGDADACALLAQIKITNPVSLDYPQAKVLAEKAAQAGSKEGEVTLAHILVNTQAGKPDYPKAISLLENASEDLENDSAVDAQMLLGLIYANGVGIKADDDKATWYFKRSSAISRTGYSEYWAGMMFLNGEEGFIEKNKQKALHWLNLSCMEGFDTGCEEFEKLTNGLEHHHHHH")
"not soluble"
>>> endpointvalue("MGSDKIHHHHHHASTKVAKSKAKGKVIVYYVYGKRGHTGKYLWSKKTLTGKIGTTYHTKALDLLNDSGYMALASHSKNTSGKFTRKTTKVYYRYYDVIERDYEFKHEADLYMELTGDHRIGLFDRNLQDGVEVVVERTNFSKPYYDVSYSNRVDTGHGSGLKEFHYRFGSTHRFKDNRDGNIYTMALTNSGGITFHAVATKHSTMNELVQVSAHGKLLTAKIRK")
"not soluble"
>>> endpointvalue("MGSDKIHHHHHHMTIKETSRSEFITLRGLRYHVRQWGTPGAPKLFMLHGWMDVAASFQFLVDCLERDWHVIAPDWRGFGETDWPTRYPGTESYWFADYIADLEALLDHYQPNGQVDLVGHSMGANVACLYAGIRPERVHRVVDLEGFGLTQTRAEQAPKRYARWLDELRQRPELRTYDDVSGVAARLQKTNPRLPDDRAAFLAEHWSRRNEAGQWEILGDPAHKLVNPVLYRVDEVMAIWAEVSAPVLHVEARDSATLRHIAHKQTLEEFRERFRAFRDFREVVIDDAGHMLHHDQPAAVAALIESFIA")
"not soluble"
>>> endpointvalue("MGSDKIHHHHHHVSRLDQLNDWLHQALQGKPHHLTTASADASFRRYFRVHLADGATLIAMDAPPPQEDCRPFVKVAALFEQAGLNVPKVLAQDVENGFLLLTDLGAQTFLDVLNEDNADTLFRDAIDALVTWQLASRPGVLPAYDEALLRRELCLFPDWYVARHLNVELSESQRSTLENAFSTIVRYNLAQPSVYVHRDYMPRNLMISTPSPGILDFQDAVYGPISYDVASLFKDAFISWQEERVLDGTIRYWEKARKAGLPVRSDFGDFYRDFEWMGLQRHLKVLGIFARIHYRDGKPKYLADTPRFMNYVRQVCVRYGELRPLLRLLDELEKREPQFGYTF")
"not soluble"

Record MSLPNNEKITRLQQQEKNTQQTVTVAKNKAANLAKFQKEVEATTLDFETQAALLPKEKEIPKLLKDISALGSNTGLDFISFKPLANRPKDFYAEIPISIQVRGPYHNVGSFFDQINKLERIVSVKSVKMTSPKKEDGEMLLTSNCQLVTYQFTNIELPKEGHHHHHH , field soluble on expression in E. coli: soluble

// soluble on expression in E. coli lookup, sequence = MDKEIKICPRCEQGYLYHAKPKYFSGEVILCDECYAMWLGDMKIFYGQYGKDFYDYHEFMKDKGIEEINMWEGELFDHPYYEDEKFK , result: not soluble

Summary for this sequence, MNKRYNTLNDYYRRIFGEKTFKVPIDAGFDCPNRDGTVAHGGCTFCTVSGSGDAIVAPEAPIRDQFYKEVDFMHRKWPDVKKYLVYFQNFTNTHDKVEVIRERYEQAINEPGVIGINIGTRPDCLPDVTILYLAELSQRLHVTLELGLQTTYEKTSKLINRAHSYQLYVETVKRVRDLAPKVEIVSHLINGLPGESHEMMLENVRRCVTDNDIDGIKLHLLHLMTNTRMQRDYHEGRLHLLSMEEYVNIICDQLEIIPKNIVIHRLTGDAPRDMLIGPMWSLNKWEVLNSIDREMERRNAYQGCKLEVNI : soluble on expression in E. coli is not soluble

Value of soluble on expression in E. coli reported for the sequence MDLMSFKEKEISKKDCLELFEDTENFFDVIKLADSIRKDIVGDTVTYVVNANINFTNVCSGTCKFCAFKAEHGDPNAFFLNPDEVAKKALEARKIGATEVCIQGGLLKEIDTYFQAEILKKVKKITEPYEEIVVHAFSPMEVKSAAENAGLSVNEALKILKENGLNSMPGTAAEILNDEIRSEICPTKLKTSEWIDVVTNAHKTGIKTTCTMMYGHIEENKHLAEHLSILRKIQKETGGFTEFVPLTFLHENAPLHHMERVKSGASGMLDLKTYAISRIFFKDYIKNIQTSWVKLGTKLSQVSLNCGANDIGGTLMEESISKAAGGSYGTFMSEEKLKDMILAVGRIPKQRNTAYEIIE is not soluble

GET /value?item= MIDHLSRAVISDPEQNLAIEQKESDHILPDSKMTPLRFRKRTLHETKIRTHSTLTENVLSHKLQFDGRIVSRTNVLPFIQKSIYSHQCGRRKGKQYRLGDFYVGATLTFLSSDHLSLPESIKENTLLKLRITNIDQIALDSLKTASMEQEDDIIIQETNDRLVFKAIQDVLKEKLHKRGVRILTGLGKYFQQLDKEGNGLLDKADFKQALKVFHLEVSEKDFESAWLILNDNGNGKVDYGEFKRGIIGEMNEYRKSYVRKAFMKLDFNKSGSVPIINIRKCYCAKKHSQVISG &field=soluble on expression in E. coli returns soluble

For MSGIFGVIVSGRTPIEVVPVSDTEFTCEIVNADAINHVVVFLTGAQPFPDGIGGSGDHFQNFPPKKTQFISVYIRWPTQDGGNWHYLGFICNEKPSAIYKVAQLHKSDASHSFSQFDNQMQLYSSGSAQIGINAESLSDITGRQAADGTQASQQVKNLEKNT the sequence record lists soluble on expression in E. coli as soluble

Value of soluble on expression in E. coli reported for the sequence METKILYQKVSADLKRRILDGDYEVGGLIPSEGELERYYQVSKITIRKAVEVLVSEGYLEKKSGIGTRVISNDLFNKLTQTQSFTATVGQQGKLTKELIKIERVPAVPALLPSESQGTMLRIKRRYLLDGKPFAVVDHYLPNTLVPTKLTALRHRSLYKILQENGQTITHFQDKFSAVTLADSERALLESQTPLAIRRERKGYDGHQRLVEFSIATYQTDVVPYQINYDVL is not soluble

---

# procedureSummary: soluble on expression in E. coli; label from the status in PepcDB or PDB records
experimentalReadout: soluble on expression in E. coli

These solved cases illustrate the format of a correct answer.
>>> endpointvalue("MKIVEVKHPLVKHKLGLMREQDISTKRFRELASEVGSLLTYEATADLETEKVTIEGWNGPVEIDQIKGKKITVVPILRAGLGMMDGVLENVPSARISVVGMYRNEETLEPVPYFQKLVSNIDERMALIVDPMLATGGSVIATIDLLKKAGCSSIKVLVLVAAPEGIAALEKAHPDVELYTASIDQGLNEHGYIIPGLGDAGDKIFGTK")
"soluble"
>>> endpointvalue("ALNQMNNLMTQEATGLKILCAPDKDSSFVIYEDDGETMDYANGGYLKTVLDIKAGEQTVLSFRNEGEYETAVEDIYLDVIHREKAPYWVKADGHELPHFLHRKKFEAAQEGWYYSQSLKSVQIKYKNPKKDYEVIVSFEQFDMIGM")
"not soluble"
>>> endpointvalue("MSLTANSHAVMTVGDQTVSPQEFRLAYQRQVSDLSRQFGTRLTTEQAKAFGIDRQVFSQLAAGAALDELASKMNLGLSENRLANLIAEDPAFKSVNGQFDRNLFSERLRNSGFREDDYIKERSKVAVRSQIVEAVSDGFAAPQVLVDALKQYRNEQRAVDYVILSNAVIPPVKAPGDDVLTPWFETNKSKYRAPEFRKFTYVKLEPSDIAEPASVTDAQIADYYNSHKDSFRTAGRRTVEQLTFPDKEMAAAAAEQIRLGNTTYDQVVKDQGKTASDVTLGEFTKDTIPDQSIADAAFAIQKDGGVSPVVDGSFGPILLRVTGIKPETEGHHHHHH")
"soluble"
>>> endpointvalue("MRMRHKPWWDDFLAENADIAISNPADYKGKWNTVFGNDNPIHIEVGTGKGQFISGMAKQNPDINYIGIELFKSVIVTAVQKVKDSEAQNVKLLNIDADTLTDVFEPGEVKRVYLNFSDPWPKKRHEKRRLTYSHFLKKYEEVMGKGGSIHFKTDNRGLFEYSLKSFSEYGLLLTYVSLDLHNSNLEGNIMTEYEEKFSALGQPIYRAEVEWRT")
"soluble"
>>> endpointvalue("MGSDKIHHHHHHMINHHPNSDVLAQFVAGTLPASVSVLVASHVELCSECTRAVQALTEQAAIDAFGESSQEALRDASQPAGLADVSGLDDFDGLDDFDTSDQFGDSDEFADCINAITALERDDTQQLPQTVTEIAVGGERIPLPTALRSIPLKEWQGMGKLSRSRLALDDGDLRMSLLHIDKGGSVPCHTHKGFEITLLLQGSFTDEMGEYRKGDFIWLDGQHTHQPVTEKGCVCLTVSSDAIRFTQGVSQLLNPIGRFIY")
"not soluble"
>>> endpointvalue("MKQTVLLLFTALFLSGCSVASADDSVPRFTEEGKYIGSADPHTIAVSLNGEETMIQVPKDKRDECESLPDQTHVLVKYTKKDNGTLQLEDIQLRKTS")
"soluble"

Field: next sequence
Per the records, this sequence ( MAETVGERPESMSPKLDNATIAAQLGSLATALDEFNRNSGSQVEMSLLLQRVCDQVVDAIADADMAGISLLRDGRVVTVAYTDEAVREIDIPNFQALDGDYFGVAGTRKVVKARLGEAAARWPSVADNLDQAGMRSFLSAPLAVDEALAGTLNIYGQGDHGFSELDAVVLLVYTTAIEGLLRSARSVELARNEVSGLTKAMKSRAVIEQAKGIVMALRGVPADQAFEILVAQSQQEHVKLAEVARRIVESVTTNPE ) has soluble on expression in E. coli equal to not soluble
